- Test system: intracellular S. flexneri 5a M90T in TC7 cells
- assay comment: microbe, parasite or virus in culture
- Assay type: cell-based, Shigella flexneri
- settings: Shigella flexneri, TC7, 14 h
pIC50: −log10 of the molar value.
I would appreciate it if you labelled entries MET when pIC50 is 7 or higher, otherwise NOT MET.

Ask: Is pIC50 for CO[C@H]1/C=C/O[C@@]2(C)Oc3c(C)c(O)c4c(O)c(c(/C=N/N5CCN(C6CCCC6)CC5)c(O)c4c3C2=O)NC(=O)/C(C)=C\C=C\[C@H](C)[C@H](O)[C@@H](C)[C@@H](O)[C@@H](C)[C@H](OC(C)=O)[C@@H]1C at or above 7?
Reply: NOT MET

Ask: hey, is pIC50 for this one >= 7? O=C(O)c1cn(C2CC2)c2cc(N3CCNCC3)c(F)cc2c1=O
Reply: MET

Ask: Record NC1CCN(c2nc3c(cc2F)c(=O)c(C(=O)O)cn3-c2ccc(F)cc2F)C1 (stereo not shown) ; criterion: pIC50 no lower than 7. Met?
Reply: MET

Ask: Would you say CCN1CCN(c2cc3c(cc2F)c(=O)c(C(=O)O)cn3C2CC2)CC1 shows pIC50 at minimum 7?
Reply: MET

Ask: // inclusive: pIC50 at least 7? input: CO/N=C1\CN(c2nc3c(cc2F)c(=O)c(C(=O)O)cn3C2CC2)CC1CN (stereo not shown)
Reply: MET
